Overview of reported efficacy (% GABA EC3) across a group of molecules:
# measuredOn: recombinant rat α5β3γ2 receptors (Rattus norvegicus, UniProt P18508+P19969)
# Sequence (P19969 32-464 limits assumed): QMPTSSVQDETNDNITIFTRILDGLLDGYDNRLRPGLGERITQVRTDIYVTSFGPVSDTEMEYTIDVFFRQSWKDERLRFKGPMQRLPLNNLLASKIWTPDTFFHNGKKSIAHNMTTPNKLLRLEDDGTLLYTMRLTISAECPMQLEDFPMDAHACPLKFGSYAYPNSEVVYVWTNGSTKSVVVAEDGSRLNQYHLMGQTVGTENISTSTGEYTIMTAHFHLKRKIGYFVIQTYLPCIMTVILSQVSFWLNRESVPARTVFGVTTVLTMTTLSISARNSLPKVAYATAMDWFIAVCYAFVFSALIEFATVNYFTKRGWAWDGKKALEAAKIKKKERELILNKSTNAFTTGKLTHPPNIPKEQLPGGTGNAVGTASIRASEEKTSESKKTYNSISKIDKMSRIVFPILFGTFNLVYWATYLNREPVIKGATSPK
# Sequence (P63079 26-473 partner): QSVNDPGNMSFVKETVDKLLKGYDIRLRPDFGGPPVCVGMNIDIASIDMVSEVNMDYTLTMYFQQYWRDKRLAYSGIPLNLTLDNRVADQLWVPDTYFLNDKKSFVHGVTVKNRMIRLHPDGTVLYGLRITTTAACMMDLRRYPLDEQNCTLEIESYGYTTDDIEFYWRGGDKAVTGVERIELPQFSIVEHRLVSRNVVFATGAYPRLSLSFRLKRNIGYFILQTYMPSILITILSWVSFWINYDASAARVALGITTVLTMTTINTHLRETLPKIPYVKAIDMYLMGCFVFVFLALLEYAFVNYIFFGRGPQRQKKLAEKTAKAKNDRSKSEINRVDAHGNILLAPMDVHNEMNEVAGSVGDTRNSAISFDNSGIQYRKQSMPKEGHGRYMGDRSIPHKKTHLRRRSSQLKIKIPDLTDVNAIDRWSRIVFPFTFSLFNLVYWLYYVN
# Sequence (P18508 39-466): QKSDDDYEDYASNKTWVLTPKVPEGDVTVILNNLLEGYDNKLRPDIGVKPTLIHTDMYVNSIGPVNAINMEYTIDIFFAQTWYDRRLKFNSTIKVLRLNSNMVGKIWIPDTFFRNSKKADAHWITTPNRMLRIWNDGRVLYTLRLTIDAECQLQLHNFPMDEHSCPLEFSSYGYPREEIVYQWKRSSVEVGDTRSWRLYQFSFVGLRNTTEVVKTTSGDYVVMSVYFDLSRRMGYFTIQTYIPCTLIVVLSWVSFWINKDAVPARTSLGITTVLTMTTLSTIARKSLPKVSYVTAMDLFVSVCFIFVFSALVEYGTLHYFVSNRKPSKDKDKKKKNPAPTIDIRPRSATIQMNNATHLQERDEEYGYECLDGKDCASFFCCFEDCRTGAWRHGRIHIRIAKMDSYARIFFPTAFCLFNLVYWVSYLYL
# procedureDetails: Two-electrode voltage clamp of GABA-induced chloride currents in Xenopus oocytes
# Type: cell-based
# conditionInfo: 1 μM; α5β3γ2; ns = not significant
Record the value in % GABA EC3, omitting the unit from your answer.

Solved entries:
- molecule: "CN1C(=O)CN=C(c2ccccc2)c2cc(Cl)ccc21"
  efficacy (% GABA EC3): 342
- molecule: "CN1CCN(C(=O)OC2c3nccnc3C(=O)N2c2ccc(Cl)cn2)CC1 (centres unmarked)"
  efficacy (% GABA EC3): 313
- molecule: "Cc1nnc2ccc(-c3cccc(C(F)(F)F)c3)nn12"
  efficacy (% GABA EC3): 114
- molecule: "CC(C)(C)OC(=O)c1ncn2c1[C@@H]1CCCN1C(=O)c1c(Br)cccc1-2"
  efficacy (% GABA EC3): 216

In: Fill in the blank: the reported efficacy (% GABA EC3) of `CCc1c(C(=O)OC)ncc2[nH]c3cc(OC)c(OC)cc3c12` is ____.
Out: 56
